# ASSAY PROTOCOL: Metabolic stability in human liver microsomes at 1 uM in presence of NADPH incubated for 30 mins by LC-MS/MS analysis
# Type: ADME, Microsome
# STATED CONDITIONS: read-out: Stability
OBSERVED PROPERTY: remaining at 0.5 h, 1 µM (%)
The answer is to be given in %; state only the numeric part.

Challenge: State the recorded remaining at 0.5 h, 1 µM for this entry: `C=CC(=O)N(Cc1cc(C)no1)c1nc(-c2ccccc2O)cs1`
Response given: 3.7

----------
# ASSAY PROTOCOL: Metabolic stability in mouse liver microsomes at 1 uM in presence of NADPH incubated for 30 mins by LC-MS/MS analysis
# Type: ADME, Microsome
# STATED CONDITIONS: read-out: Stability
OBSERVED PROPERTY: remaining at 0.5 h, 1 µM (%)
Field format: number, assumed %, no unit text.

Challenge: Which value of remaining at 0.5 h, 1 µM has been reported for `C=CC(=O)N(Cc1cc(C)no1)c1nc(-c2ccccc2O)cs1` in the records?
Response given: 8
